Values were extracted from patent US20250296938A1.

I'd be grateful if you could share measured inhibition at 20 µM for these entries.
- ASSAY SYSTEM: Rac-1 (Homo sapiens, UniProt P63000)
- PROTOCOL SUMMARY: Ras GTP binding domain inhibition assay (Cy3-GTP/Cy5-GTP competition)
- REPORTED CONDITIONS: with SOS, read-out: Rac-1 + SOS: % inh.

**Q:** Kindly state the measured inhibition at 20 µM obtained for COc1cccc(-c2sc3nc(-c4nccn4C)nc(NC4CCC(OC)C4)c3c2C)c1F (stereo not drawn) [drawing 1028] with Rac-1 (Homo sapiens, UniProt P63000).
**A:** 51 to 75%

**Q:** Any idea what inhibition at 20 µM came out for Cn1ccc(-c2sc3nc(-c4nccn4C)nc(N[C@@H]4CC[C@H](O)C4)c3c2C2=CC=CCC=C2)n1 (racemic) on Rac-1 (Homo sapiens, UniProt P63000)?
**A:** 1 to 25%

**Q:** Query for Rac-1 (Homo sapiens, UniProt P63000): what inhibition at 20 µM does the record show for COc1ncccc1-c1sc2nc(-c3nccn3C)nc(N3CCC(OC)C3)c2c1-c1ccccc1 (stereo not drawn) [drawing 978] ?
**A:** 51 to 75%

**Q:** For the record Cn1ccc(-c2sc3nc(-c4nccn4C)nc(NC4CCOCC4)c3c2-c2ccccc2)n1 [drawing 997] , what value of inhibition at 20 µM is listed for Rac-1 (Homo sapiens, UniProt P63000)?
**A:** 26 to 50%

**Q:** Which inhibition at 20 µM is reported with Rac-1 (Homo sapiens, UniProt P63000) for this entry: Oc1nc(-c2cn3ccccc3n2)nc2c(-c3ccccn3)csc12 [drawing 951] ?
**A:** 26 to 50%

**Q:** # get_value(readout= inhibition at 20 µM, system= Rac-1 (Homo sapiens, UniProt P63000)) for Cc1cnc(-c2nc(O)c3scc(-c4ccccn4)c3n2)n1C [drawing 943]
**A:** 51 to 75%

**Q:** Value wanted: inhibition at 20 µM (Rac-1 (Homo sapiens, UniProt P63000)) of entry Cn1ccnc1-c1nc(O)c(O)c(C(=O)N2CCCC2)n1 [drawing 963]
**A:** 26 to 50%

**Q:** Value wanted: inhibition at 20 µM (Rac-1 (Homo sapiens, UniProt P63000)) of entry COCCc1ccc(Oc2nc(-c3ccccn3)nc(O)c2OC)cc1 [drawing 949]
**A:** 76 to 100%

**Q:** Recorded inhibition at 20 µM for COC1CCN(c2nc(-c3nccn3C)nc3sc(Br)c(-c4ccccc4)c23)C1 (stereo not drawn) [drawing 957] with Rac-1 (Homo sapiens, UniProt P63000), please?
**A:** 1 to 25%
